experiment: clinical; settings: both, human, plasma, 60 mg
reported metric: Tmax
Answer with the number, then the unit.

Ask: State its Tmax for this molecule: CCCCCO[C@H]1CC[C@H](NC(=O)c2cnn3c(C)cc(C)nc23)CC1 [Compound A]
Reply: 2 h

* * *

assay: clinical; settings: both, human, plasma, 60 mg
reported metric: Cmax (ng/mL)
Answer in ng/mL, number only, no unit symbol.

Ask: Using known records, supply Cmax for CCCCCO[C@H]1CC[C@H](NC(=O)c2cnn3c(C)cc(C)nc23)CC1 [Compound A]
Reply: 2030

* * *

test: LTI-291-001 single ascending dose study: plasma pharmacokinetics and food effect; type: in vivo, human; details: human, plasma, po, 30 mg, 30 mg fasted, single oral dose, median; read-out: Tmax
reported metric: Tmax (h)
Your answer should be a plain number; it is taken to be in h.

Ask: Quick one: give measured Tmax for `CCCCCO[C@H]1CC[C@H](NC(=O)c2cnn3c(C)cc(C)nc23)CC1`
Reply: 3.02
